measurement_target: CDK1/Cyclin E1 (Homo sapiens)
Sequence (P06493 whole entry): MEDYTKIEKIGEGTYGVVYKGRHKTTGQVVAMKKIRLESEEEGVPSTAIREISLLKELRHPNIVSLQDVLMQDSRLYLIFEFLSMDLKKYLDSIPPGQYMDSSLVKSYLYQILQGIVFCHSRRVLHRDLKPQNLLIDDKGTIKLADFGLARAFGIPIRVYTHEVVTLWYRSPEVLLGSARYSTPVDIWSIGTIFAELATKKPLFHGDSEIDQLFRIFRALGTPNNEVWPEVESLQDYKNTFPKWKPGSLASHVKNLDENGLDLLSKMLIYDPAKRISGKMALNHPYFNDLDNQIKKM
Sequence (P24864 whole entry partner): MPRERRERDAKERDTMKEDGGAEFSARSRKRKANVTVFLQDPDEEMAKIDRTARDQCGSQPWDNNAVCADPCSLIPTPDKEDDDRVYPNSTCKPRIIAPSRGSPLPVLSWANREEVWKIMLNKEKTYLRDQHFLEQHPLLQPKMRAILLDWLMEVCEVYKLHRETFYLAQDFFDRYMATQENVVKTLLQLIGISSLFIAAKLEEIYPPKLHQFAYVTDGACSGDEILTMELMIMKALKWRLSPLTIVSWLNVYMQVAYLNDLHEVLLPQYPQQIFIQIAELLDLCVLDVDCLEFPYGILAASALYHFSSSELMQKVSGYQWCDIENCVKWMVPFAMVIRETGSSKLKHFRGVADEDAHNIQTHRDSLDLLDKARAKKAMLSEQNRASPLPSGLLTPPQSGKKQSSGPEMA
assay_text: NanoBRET live-cell target engagement, CDK1-NanoLuc/Cyclin E1 in HEK-293
Format: binding
measurement_setup: CDK1/E1; 10µM; read-out: Inhibition at 10µM (%) Replicate 1
Kindly return condition met if reported inhibition at 10 µM is no lower than 60%; return condition not met if it is lower.

>>> label("Cc1ncc(-c2ccnc(Nc3ccc(S(C)(=O)=O)cc3)n2)n1C(C)C")
"condition met"
>>> label("COc1cc(F)ccc1-c1ncnc(Nc2cccc(C[S@](C)(=N)=O)c2)n1")
"condition not met"
>>> label("CCCCOc1c(C(=O)c2c(F)cc(C)cc2F)c[nH]c2nncc1-2")
"condition met"
>>> label("CC(C)c1cnn2c(NCc3ccccc3)cc(NCCCCCCN)nc12")
"condition not met"

# bool: inhibition at 10 µM of C[C@H]1CC[C@H](n2c3cnccc3c3cnc(Nc4ccc5c(n4)CCN(C(=O)CO)C5)nc32)CC1 >= 60%
condition not met

# bool: inhibition at 10 µM of COc1cc(F)ccc1-c1cc(Nc2cc(CS(C)(=N)=O)ccn2)ncc1F (stereo not shown) >= 60%
condition not met

###

Kindly supply the reported inhibition at 10 µM values for the records listed here.
measurement_target: CDK19/Cyclin C (Homo sapiens, UniProt Q9BWU1)
Sequence (Q9BWU1 whole entry): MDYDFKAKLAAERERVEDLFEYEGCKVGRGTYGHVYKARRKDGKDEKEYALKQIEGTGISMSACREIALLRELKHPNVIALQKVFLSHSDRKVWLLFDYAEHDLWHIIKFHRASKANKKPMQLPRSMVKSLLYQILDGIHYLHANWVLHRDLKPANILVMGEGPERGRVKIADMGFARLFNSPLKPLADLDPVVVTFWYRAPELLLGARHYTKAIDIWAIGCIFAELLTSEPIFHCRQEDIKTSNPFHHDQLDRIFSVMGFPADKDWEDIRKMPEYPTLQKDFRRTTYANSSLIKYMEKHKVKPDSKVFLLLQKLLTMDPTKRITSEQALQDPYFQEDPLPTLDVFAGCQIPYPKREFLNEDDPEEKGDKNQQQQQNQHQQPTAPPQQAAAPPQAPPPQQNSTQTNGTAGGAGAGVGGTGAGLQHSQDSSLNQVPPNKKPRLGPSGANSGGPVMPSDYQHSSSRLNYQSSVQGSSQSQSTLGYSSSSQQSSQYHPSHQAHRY
Sequence (P24863 whole entry partner): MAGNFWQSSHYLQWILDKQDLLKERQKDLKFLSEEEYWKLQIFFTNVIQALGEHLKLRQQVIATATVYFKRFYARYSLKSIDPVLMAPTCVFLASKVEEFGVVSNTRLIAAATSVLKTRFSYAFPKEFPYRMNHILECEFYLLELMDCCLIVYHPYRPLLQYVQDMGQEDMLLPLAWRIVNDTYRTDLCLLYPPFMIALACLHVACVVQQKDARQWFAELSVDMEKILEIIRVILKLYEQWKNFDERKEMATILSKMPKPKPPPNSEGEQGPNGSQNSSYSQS
assay_text: NanoBRET live-cell target engagement, NanoLuc-CDK19/Cyclin C in HEK-293
measurement_setup: read-out: CDK19/C Inhibition at 10µM (%), 10µM; independent experiment 2
Numbers only, in %.

Example compounds with recorded inhibition at 10 µM:
>>> data_value("CC(C)CC(=O)Nc1[nH]nc2c1CN(C(=O)C1CCN(C)CC1)C2(C)C")
41.9
>>> data_value("CC[C@H](CO)Nc1nc(NCc2ccccc2)c2ncn(C(C)C)c2n1")
10.4
>>> data_value("COCCN1CCN(Cc2ccc(-c3n[nH]c4c3C(=O)c3c(NC(=O)NN5CCOCC5)cccc3-4)cc2)CC1")
83.3
>>> data_value("CN1C/C=C/CCOc2cccc(c2)-c2ccnc(n2)Nc2cccc(c2)C1")
87.4
>>> data_value("CN(C)C(=O)c1cc2cnc(Nc3ccc(N4CCNCC4)cn3)nc2n1C1CCCC1")
4.8

Need inhibition at 10 µM for each of these compounds.
1. CN(C)C/C=C/C(=O)Nc1ccc(C(=O)N2CCC[C@@H](Nc3ncc(Cl)c(-c4c[nH]c5ccccc45)n3)C2)cc1
2. CN1CCN(c2ccc(Nc3ncc4cc5n(c4n3)C3(CCCCC3)CNC5=O)nc2)CC1
3. CC(=O)c1c(C)c2cnc(Nc3ccc(N4CCNCC4)cn3)nc2n(C2CCCC2)c1=O
4. CC(C)[C@H](CO)Nc1nc(Nc2ccc(C(=O)O)c(Cl)c2)c2ncn(C(C)C)c2n1

[52.6, 8.5, -2.3, 3.4]

###

measurement_target: CDK3/Cyclin E1 (Homo sapiens, UniProt Q00526)
Sequence (Q00526 whole entry): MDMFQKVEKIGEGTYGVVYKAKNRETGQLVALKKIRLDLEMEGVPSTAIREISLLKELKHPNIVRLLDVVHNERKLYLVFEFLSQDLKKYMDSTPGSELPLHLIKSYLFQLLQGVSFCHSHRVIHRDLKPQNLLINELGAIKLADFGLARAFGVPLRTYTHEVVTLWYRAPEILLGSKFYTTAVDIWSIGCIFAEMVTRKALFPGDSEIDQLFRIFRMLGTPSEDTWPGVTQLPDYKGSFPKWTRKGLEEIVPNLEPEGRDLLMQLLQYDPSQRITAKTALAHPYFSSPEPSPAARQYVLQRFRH
Sequence (P24864 whole entry partner): as the sequence (P24864 whole entry partner) above
assay_text: NanoBRET live-cell target engagement, CDK3-NanoLuc/Cyclin E1 in HEK-293
Format: binding
measurement_setup: CDK3/E1; experiment 2; read-out: IC50
observation_type: pIC50
One number for each entry, as −log10 of the molar value.

Example molecules with recorded pIC50:
>>> data_value("CS(=O)(=O)N1CCC(NC(=O)c2[nH]ncc2NC(=O)c2c(Cl)cccc2Cl)CC1 [NVP-LCQ195]")
7.44
>>> data_value("CC(C)c1cnn2c(NCc3ccccc3-n3cccn3)nc(OC3CCCNC3)nc12 (stereo not drawn) [LDC4297]")
6.43

Now for a further molecule.
Return pIC50 (reported value) for this molecule: CCn1cnc2c(Nc3cccc(Cl)c3)nc(N[C@@H]3CCCC[C@@H]3N)nc21 [CGP74514A]
6.96
